Kindly supply the reported furin cleavage Z-score values for the records listed here.
molecular target: furin, P09958; test: furin cleavage Z-score vs untreated control; higher = more cleavage, active = 3.5 or more, inactive = 1 or less, 8 variable residues between constant flanks; conditions: 30 min;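 note: purified furin at 1:10 enzyme:substrate in 50 mM HEPES pH 7.5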
Sequence (P09958 whole entry): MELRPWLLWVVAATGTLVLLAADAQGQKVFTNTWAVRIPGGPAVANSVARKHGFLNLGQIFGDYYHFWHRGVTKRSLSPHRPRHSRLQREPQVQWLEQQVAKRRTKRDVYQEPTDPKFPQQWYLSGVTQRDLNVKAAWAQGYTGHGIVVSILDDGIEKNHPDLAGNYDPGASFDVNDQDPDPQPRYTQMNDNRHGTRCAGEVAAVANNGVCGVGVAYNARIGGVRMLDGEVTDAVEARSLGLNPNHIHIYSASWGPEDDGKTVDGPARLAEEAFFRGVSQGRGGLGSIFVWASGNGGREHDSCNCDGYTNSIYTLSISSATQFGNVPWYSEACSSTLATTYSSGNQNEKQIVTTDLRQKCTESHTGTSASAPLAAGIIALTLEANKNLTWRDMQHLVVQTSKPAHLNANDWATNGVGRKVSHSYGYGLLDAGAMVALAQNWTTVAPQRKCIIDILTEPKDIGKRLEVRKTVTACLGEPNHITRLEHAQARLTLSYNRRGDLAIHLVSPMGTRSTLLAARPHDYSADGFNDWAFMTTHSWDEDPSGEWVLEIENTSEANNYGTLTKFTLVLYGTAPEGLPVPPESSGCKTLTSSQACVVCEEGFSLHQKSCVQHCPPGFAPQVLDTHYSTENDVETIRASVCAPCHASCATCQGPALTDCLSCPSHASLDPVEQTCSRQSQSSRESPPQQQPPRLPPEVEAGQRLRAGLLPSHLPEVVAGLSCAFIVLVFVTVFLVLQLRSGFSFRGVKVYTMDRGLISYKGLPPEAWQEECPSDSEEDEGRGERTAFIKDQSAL
Some of the results follow. The hit rate among all sequences tested is not known here.
I'd appreciate a reply containing only the number, no unit.

In one line, give reported furin cleavage Z-score of the entry CATNPCSGSWAGNASASA [HC1861] .
-0.828

In one line, give reported furin cleavage Z-score of the entry CARLTRSNSKAGNASASA [FS-1750] .
-1.49

In one line, give reported furin cleavage Z-score of the entry CAEVVTSTAVAGNASASA [HC2223] .
0.704

In one line, give reported furin cleavage Z-score of the entry CARQRRAITVAGNASASA [FS-2509] .
7.22

In one line, give reported furin cleavage Z-score of the entry CAIMFAPTLWAGNASASA [HC1577] .
0.617

In one line, give reported furin cleavage Z-score of the entry CAHTQRNRRSAGNASASA [FS-799] .
10.4

In one line, give reported furin cleavage Z-score of the entry CASTPCSAHYAGNASASA [HC2569] .
0.946

In one line, give reported furin cleavage Z-score of the entry CARKVRDKISAGNASASA [FS-1961] .
1.37

In one line, give reported furin cleavage Z-score of the entry CADVPRRKRKAGNASASA [FS-1316] .
8.13

In one line, give reported furin cleavage Z-score of the entry CAKFPGGGQIAGNASASA [HC172] .
-2.19

In one line, give reported furin cleavage Z-score of the entry CADAVILLMCAGNASASA [HC596] .
0.744

In one line, give reported furin cleavage Z-score of the entry CANSSRSKKPAGNASASA [FS-947] .
-1.7

In one line, give reported furin cleavage Z-score of the entry CATTPCSGVWAGNASASA [HC1910] .
0.601

In one line, give reported furin cleavage Z-score of the entry CADIHRNKRKAGNASASA [FS-408] .
2.04

In one line, give reported furin cleavage Z-score of the entry CARLKRSPDKAGNASASA [FS-2277] .
8.68

In one line, give reported furin cleavage Z-score of the entry CAEVVTSDWVAGNASASA [HC2211] .
-1.22

In one line, give reported furin cleavage Z-score of the entry CAEECSQHLPAGNASASA [HC1015] .
-0.935

In one line, give reported furin cleavage Z-score of the entry CARKIRVNGTAGNASASA [FS-2422] .
-1.68

In one line, give reported furin cleavage Z-score of the entry CACVWRRKRKAGNASASA [FS-324] .
5.25

In one line, give reported furin cleavage Z-score of the entry CARHSRSQGAAGNASASA [FS-2948] .
-0.497

In one line, give reported furin cleavage Z-score of the entry CARQRRARFVAGNASASA [FS-1770] .
7.14

In one line, give reported furin cleavage Z-score of the entry CAEVAERKREAGNASASA [FS-1195] .
0.657

In one line, give reported furin cleavage Z-score of the entry CAFAQALPVWAGNASASA [HC1301] .
-2.4

In one line, give reported furin cleavage Z-score of the entry CARQPRVDFVAGNASASA [FS-2064] .
-0.469

In one line, give reported furin cleavage Z-score of the entry CAEVECHRPSAGNASASA [HC2352] .
0.236

In one line, give reported furin cleavage Z-score of the entry CARQRRAFQVAGNASASA [FS-2508] .
6.29

In one line, give reported furin cleavage Z-score of the entry CASTFCSAHLAGNASASA [HC2507] .
-0.904

In one line, give reported furin cleavage Z-score of the entry CARMAWDMMMAGNASASA [HC319] .
-0.966

In one line, give reported furin cleavage Z-score of the entry CAVSVIPTSGAGNASASA [HC872] .
-0.759

In one line, give reported furin cleavage Z-score of the entry CARKMRPARLAGNASASA [FS-1260] .
4.92
